# PROTOCOL: Methylglyoxal reductase activity assay, kinetics of purified YqhD enzymes toward co-factor NADPH
# Format: biochemical, E. coli
MEASURE: Specific activity (µmol/min/mg)
Numbers only, in µmol/min/mg.

Please report the recorded Specific activity for Escherichia coli MG1655 YqhD, native (wild type), SEQ ID NO: 56 (Escherichia coli K-12) (protein) MNNFNLHTPTRILFGKGAIAGLREQIPHDARVLITYGGGSVKKTGVLDQVLDALKGMDVLEFGGIEPNPAYETLMNAVKLVREQKVTFLLAVGGGSVLDGTKFIAAAANYPENIDPWHILQTGGKEIKSAIPMGCVLTLPATGSESNAGAVISRKTTGDKQAFHSAHVQPVFAVLDPVYTYTLPPRQVANGVVDAFVHTVEQYVTKPVDAKIQDRFAEGILLTLIEDGPKALKEPENYDVRANVMWAATQALNGLIGAGVPQDWATHMLGHELTAMHGLDHAQTLAIVLPALWNEKRDTKRAKLLQYAERVWNITEGSDDERIDAAIAATRNFFEQLGVPTHLSDYGLDGSSIPALLKKLEEHGMTQLGENHDITLDVSRRIYEAAR .
2.99
